- Tested on: OVCAR-4 ovarian
- methodSummary: NCI tumour cell line growth inhibition, 48 h
measurementKind: TGI

Illustrative cases are given below, each with its answer.
INSERT INTO assay_data (smilesstructure, endpointvalue) VALUES
  ('Cc1cc2ccccc2c[n+]1CC(O)C[n+]1cc2ccccc2cc1C', '> 100 µM'),
  ('COc1ccc(-c2ccc(/C=C/C(=O)NO)cc2)cc1', '4.44 µM');

Problem: Entry under review: CCCn1c(C23CC4CC(CC(C4)C2)C3)nc2ccc(Cl)cc2c1=O . Reported TGI?
Result: > 100 µM

###

- Tested on: DMS 273 small cell lung
- methodSummary: NCI tumour cell line growth inhibition, 48 h
measurementKind: TGI

Illustrative cases are given below, each with its answer.
INSERT INTO results (compound, measurementkind, endpointvalue) VALUES
  ('Cc1cccc(NC(=O)C(=O)C2C(=O)NC(=O)NC2=O)c1C', 'TGI', '> 100 µM'),
  ('O=C(N/N=C(/c1nc2ccc(Cl)cc2[nH]c1=O)C(O)c1ccc(Cl)cc1Cl)c1ccncc1 (centres undefined)', 'TGI', '> 100 µM'),
  ('COc1cc([C@@H]2c3cc4c(cc3[C@@H](NC(=O)c3ccc(N)cc3)C3COC(=O)[C@@H]32)OCO4)cc(OC)c1O (some centres undefined)', 'TGI', '16.3 µM'),
  ('C=CN1C(=O)OC(c2ccccc2)C1c1ccccc1 (centres undefined)', 'TGI', '> 100 µM'),
  ('Cc1ccc2nc3c(C)c(Cl)c(=O)cc-3sc2c1', 'TGI', '> 91.3 µM');

Problem: Entry under review: O=C1C2c3[nH]c4ccccc4c3[C@@H]3CCCCCCCCCCC3C2C(=O)N1c1ccccc1 (some centres undefined) . Reported TGI?
Result: > 100 µM

Problem: And then CC(=O)NS(=O)(=O)c1ccc(NC(=O)COC(=O)c2cccc3c(=O)c4ccccc4[nH]c23)cc1 , what is it?
Result: > 100 µM

Problem: And then COC(=O)C(=O)C1(CCC(C)=O)c2ccccc2-c2ccccc21 , what is it?
Result: > 100 µM

Problem: And then Cc1cc(NS(=O)(=O)c2ccc(Nc3c4ccccc4nc4c(C(=O)Nc5ccc(S(=O)(=O)N=C(N)N)cc5)cccc34)cc2)no1 , what is it?
Result: > 100 µM

###

# TGI annotations
- System: SR leukemia
- methodSummary: NCI tumour cell line growth inhibition, 48 h

Illustrative cases are given below, each with its answer.
INSERT INTO assay_data (compound, measurementkind, endpointvalue) VALUES
  ('COc1cc(-c2cc(-c3ccc(N(C)C)cc3)nc(N3CCOCC3)c2C#N)cc(OC)c1OC', 'TGI', '4.04 µM'),
  ('CCOC(=O)c1cc2c(OC(C)=O)ccc(OC(C)=O)c2s1', 'TGI', '> 22.7 µM'),
  ('c1ccc2c(CNCCCCCCNCc3cccc4ccccc34)cccc2c1', 'TGI', '4.47 µM'),
  ('CC(=O)OCC1OC(OC2C(COC(C)=O)OC(OCCC[S-])C(OC(C)=O)C2OC(C)=O)C(OC(C)=O)C(OC(C)=O)C1OC(C)=O.[Au+].c1ccc(CN2[CH-]N(Cc3ccccc3)C(c3ccccc3)=C2c2ccccc2)cc1 (centres undefined)', 'TGI', '20.6 µM'),
  ('COc1cccc(NC(=O)CSc2nnc(-c3ccc(N=Cc4ccc(Cl)cc4)cc3)o2)c1', 'TGI', '> 100 µM');

Problem: Entry under review: O=C(c1ccc2ccccc2c1)C1S(=O)(=O)OCCOS1(=O)=O . Reported TGI?
Result: > 100 µM

Problem: And then CN(C)CCOC(=O)COc1ccc(Cl)cc1 , what is it?
Result: > 100 µM

Problem: And then CN(C)C[C@H]1CC[C@@H](CN(C)C)C1=O , what is it?
Result: > 50 µM

Problem: And then O=C(c1cc(O)ccc1O)c1ccccc1C(Cl)(Cl)Cl , what is it?
Result: > 100 µM
